# studySystem: CYP2A6*15 (Homo sapiens, UniProt P11509, K194E)
# Construct: made in house; host or cells: E. coli (membrane fractions; pCW-CYP2A6*15 co-expressed with pACYC-OxR)
# Sequence (P11509 1-494 K194E): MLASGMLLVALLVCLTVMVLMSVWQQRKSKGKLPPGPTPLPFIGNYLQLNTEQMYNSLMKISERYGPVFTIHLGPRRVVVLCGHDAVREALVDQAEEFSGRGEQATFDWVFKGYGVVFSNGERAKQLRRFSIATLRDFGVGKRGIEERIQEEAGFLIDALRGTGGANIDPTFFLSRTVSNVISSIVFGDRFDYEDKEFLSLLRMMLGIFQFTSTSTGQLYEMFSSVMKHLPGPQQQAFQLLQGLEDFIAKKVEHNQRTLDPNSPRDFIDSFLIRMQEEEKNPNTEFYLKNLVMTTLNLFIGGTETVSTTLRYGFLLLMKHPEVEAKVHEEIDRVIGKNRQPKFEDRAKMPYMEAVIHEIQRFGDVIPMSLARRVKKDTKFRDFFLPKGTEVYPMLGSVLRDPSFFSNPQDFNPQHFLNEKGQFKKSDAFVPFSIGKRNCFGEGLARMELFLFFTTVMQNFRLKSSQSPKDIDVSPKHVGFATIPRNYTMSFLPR
# assay: CYP2A6 inactivation assay (fluorescence-based coumarin 7-hydroxylase assay)
# Assay type: biochemical
# conditionLabel: pH 7.4, probe coumarin (10 µM; 7-hydroxylation), 8-MOP 1.0 µM, 10 min pre-incubation with NADPH generating system vs no pre-incubation, read-out: increased percentage in inhibition with pre-incubation
endpoint: inhibition at 35 min, 1 µM

# querySmiles, studySystem, endpoint, result
rows = [
    ("COc1c2occc2cc2ccc(=O)oc12", "CYP2A6*15 (Homo sapiens, UniProt P11509, K194E)", "inhibition at 35 min, 1 µM", "32%"),
]
